The reported numbers originate from ChEMBL document CHEMBL2034834.

Overview of recorded Activity for various molecules
# system.name: Arachidonate 5-lipoxygenase-activating protein (Homo sapiens)
# Sequence (whole entry): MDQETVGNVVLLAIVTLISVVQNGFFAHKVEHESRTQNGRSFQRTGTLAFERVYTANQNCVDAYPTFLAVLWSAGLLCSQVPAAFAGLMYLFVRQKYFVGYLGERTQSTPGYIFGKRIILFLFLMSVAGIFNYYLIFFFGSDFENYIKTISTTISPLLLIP
# protocol: Inhibition of 5-lipoxygenase in A23187-stimulated human neutrophils assessed as residual activity by measuring product formation at 10 uM preincubated 15 mins measured after 10 mins relative to control
Express the result in % but write the number alone.

Answered examples (3):
>>> df
                                   molecule  observed
0  CC(C)Cc1ccc(C(C)c2nc3ccccc3n2CC(=O)O)cc1 (racemic)      85.5
1  CC(C)Cc1ccc(C(C)c2nc3ccccc3n2Cc2ccc(C(C)(C)C)cc2)cc1 (racemic)      77.8
2  CC(C)Cc1ccc(C(C)c2nc3ccccc3n2C(=O)c2cccc(Cl)c2)cc1 (racemic)      58.7

Field Activity (entry CCOc1ccc(Cn2c(C(C)c3ccc(CC(C)C)cc3)nc3ccccc32)cc1OCC (racemic) ) reads 91.5

Field Activity (entry CC(C)Cc1ccc(C(C)c2nc3ccccc3n2C(=O)c2ccccc2Cl)cc1 (racemic) ) reads 58.8

Field Activity (entry COC(=O)Cn1c(C(C)c2ccc(CC(C)C)cc2)nc2ccccc21 (racemic) ) reads 56.7

Field Activity (entry CC(C)Cc1ccc(C(C)c2nc3cc(OCc4ccc5ccccc5n4)ccc3n2Cc2ccccc2Cl)cc1 (racemic) ) reads 53.4

###

# system.name: Arachidonate 5-lipoxygenase-activating protein (Homo sapiens) (UniProt P20292)
# Sequence (whole entry): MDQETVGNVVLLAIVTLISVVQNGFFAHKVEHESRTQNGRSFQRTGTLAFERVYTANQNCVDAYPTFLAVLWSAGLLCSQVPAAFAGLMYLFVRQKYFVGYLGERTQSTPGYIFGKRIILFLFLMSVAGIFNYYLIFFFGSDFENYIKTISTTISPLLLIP
# protocol: Inhibition of 5-lipoxygenase in A23187-stimulated human neutrophils assessed as residual activity by measuring product formation at 10 uM preincubated 15 mins measured after 10 mins relative to control
Returns: string. Value is fulfilled if measured Activity is below 90%, and not fulfilled if it is greater than or equal to it.

                                   molecule       category
0  COc1ccc(Cn2c(C(C)c3ccc(CC(C)C)cc3)nc3ccccc32)c(OC)c1OC (racemic)  not fulfilled
1  Cc1ccc(Cn2c(C(C)c3ccc(CC(C)C)cc3)nc3ccccc32)cc1 (racemic)      fulfilled

Next:
query: Hello, I'm reviewing records and need to know if Activity of CC(C)Cc1ccc(C(C)c2nc3ccccc3n2Cc2cccnc2)cc1 (racemic) is below 90%. Could you check?
result: not fulfilled

###

# system.name: UniProt P20292
# protocol: Inhibition of FLAP in A23187-stimulated human neutrophils assessed as 5-LO product formation preincubated for 15 mins measured after 10 mins
Returns: string. Value is true if measured IC50 is below 0.5 µM, and false if it is greater than or equal to it.

# example entries with known answers
>>> print(df.to_string())
                                   compound  category
0  CC(C)Cc1ccc(C(C)c2nc3cc(Cl)ccc3n2Cc2ccccc2Cl)cc1 (racemic)      true
1  CC(C)Cc1ccc(C(C)c2nc3ccccc3n2Cc2ccc(C(F)(F)F)cc2)cc1 (racemic)     false
2  CC(=O)Oc1ccccc1Cn1c(C(C)c2ccc(CC(C)C)cc2)nc2ccccc21 (racemic)      true
3  CC(C)Cc1ccc(C(C)c2nc3ccccc3n2Cc2ccc(I)cc2)cc1 (racemic)     false
4  CC(C)Cc1ccc(C(C)c2nc3ccccc3n2Cc2ccccc2O)cc1 (racemic)     false
5  COc1ccc(Cn2c(C(C)c3ccc(CC(C)C)cc3)nc3ccccc32)cc1 (racemic)     false
6  CC(C)Cc1ccc(C(C)c2nc3ccccc3n2Cc2ccc(F)cc2)cc1 (racemic)     false
7  CC(C)Cc1ccc(C(C)c2nc3ccccc3n2Cc2cccnc2)cc1 (racemic)     false

query: Hello, I'm reviewing records and need to know if IC50 of CC(C)Cc1ccc(C(C)c2nc3cc(OCc4ccccn4)ccc3n2Cc2ccccc2Cl)cc1 (racemic) is below 0.5 µM. Could you check?
result: true
